Measured %Inh values are reported for all entries that follow.
tested on: STK36; conditions: concentration: 1 μM,replicates: in singlicate; n = 1;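 further: KINOMEscan kinase panel screen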
VALUE_KIND: %Inh (%)

> print(dat)
                                    molecule  assayed.system  value.kind  unit.descriptor  value.observed
 1  Cc1ccc(C(=O)Nc2ccc(Oc3ccc4nc(NC(=O)C5CC5)cn4c3)c(F)c2)c(=O)n1-c1ccccc1           STK36        %Inh                %               3
 2  CN(c1cccc(CNc2nc(Nc3ccc4c(c3)CC(=O)N4)ncc2C(F)(F)F)c1)S(C)(=O)=O           STK36        %Inh                %              20
 3  CS(=O)(=O)c1cccc(CNc2nc(Nc3ccc4c(c3)[C@@H]3C[C@@H]4CNC3=O)ncc2C(F)(F)F)c1           STK36        %Inh                %              10
 4  Cn1ccc2ncnc(Oc3ccc(NC(=O)Nc4ccnc(C(F)(F)F)c4)c(Cl)c3)c21           STK36        %Inh                %               0
 5      Cn1cc(-c2cccc3c(N)c(C(N)=O)nnc23)cn1           STK36        %Inh                %               6
 6  Cc1ccc2c(-c3ccnc(Nc4ccc(C(F)(F)F)cc4)n3)cnn2n1           STK36        %Inh                %               9
 7  COC(=O)c1cccc(NC(=O)NC2CCN(c3ccnc(Nc4cc(OC)c(OC)c(OC)c4)n3)C2)c1 (stereo not drawn)           STK36        %Inh                %               0
 8  CN1CCN(CCNc2nc3cc(Oc4ccc(NC(=O)Nc5cc(C(F)(F)F)ccc5F)cc4)ccc3[nH]2)CC1.Cl.Cl           STK36        %Inh                %              13
 9           Nc1nccc(-c2ccc3c(N)n[nH]c3c2)n1           STK36        %Inh                %               0
10  CC(=O)Nc1nc2cnc(Nc3cc(NC(=O)c4cccc(CC(C)(C)C#N)c4)ccc3C)nc2s1           STK36        %Inh                %               8
11  CC(=O)Nc1ccc(-c2cc3ncnc(SCC(=O)O)c3s2)cc1           STK36        %Inh                %               1
12  CSc1nccc(-c2c(-c3ccc(F)cc3)ncn2CCCN2CCOCC2)n1.Cl           STK36        %Inh                %               0
13  COC(=O)Nc1nc2cc(Oc3ccc(NC(=O)Nc4cc(C(F)(F)F)ccc4Cl)cc3)ccc2[nH]1.Cl           STK36        %Inh                %               0
14           Cl.Nc1n[nH]c2cc(-c3ccccn3)ccc12           STK36        %Inh                %               0
15  Cl.c1ccc(Oc2ccc(Nc3ccnc4cc(-c5ccc(CN6CCNCC6)o5)ccc34)cc2)nc1           STK36        %Inh                %               0
16                 CCCC(=O)Nc1n[nH]c2ncccc12           STK36        %Inh                %               4
17  O=C(NOCC1CC1)c1cc(Br)c(F)c(F)c1Nc1ccc(I)cc1Cl           STK36        %Inh                %               0
18  C[C@@H](Oc1cc(-n2cnc3cc(-c4ccncc4)ccc32)sc1C(N)=O)c1ccccc1Cl           STK36        %Inh                %               0
19        NC(=O)Nc1sc(-c2ccc(F)cc2)cc1C(N)=O           STK36        %Inh                %               0
20   CC(=O)c1c(-c2ccncc2)[nH]c(-c2ccncc2)c1C           STK36        %Inh                %              10
21  Cc1cccc2c(-c3ccncc3)c(-c3ccc(F)cc3)nn12.Cl           STK36        %Inh                %              24
22             O=C1NCCc2[nH]c(-c3ccncc3)cc21           STK36        %Inh                %               6
23  NC(=O)c1ccc(-c2cc3ncnc(SCC(=O)O)c3s2)cc1           STK36        %Inh                %               0
24  CC(C)c1nc(-c2cccc(NS(=O)(=O)c3ccccc3)c2)c(-c2ccnc(Nc3ccc4c(c3)CN(C)CC4)n2)s1           STK36        %Inh                %             100
25  CCN1CCN(CCCC(=O)Nc2n[nH]c3nc(-c4ccc(O)cc4)c(Br)cc23)CC1           STK36        %Inh                %               0
26    CS(=O)(=O)Nc1ccc(-c2ccnc3[nH]ccc23)cc1           STK36        %Inh                %               0
27  OCCn1cc(-c2cnc3nnn(Cc4ccc5ncccc5c4)c3n2)cn1           STK36        %Inh                %               0
